Ref: patent US20050101595A1

tgt: CDK2/Cyclin A (Homo sapiens, UniProt P24941)
experimentDescription: Inhibition of CDK2/Cyclin A Retinoblastoma Kinase Activity
Format: biochemical
testContext: 0.03 μM compound; Table 3
quantityName: CDK2 % Inhibition at 0.03 μM (%)

# annotated cases, reported CDK2 % Inhibition at 0.03 μM shown
Nc1nc(NC2CCN(S(=O)(=O)c3ccc(-c4ccon4)s3)CC2)sc1C(=O)c1c(F)cccc1F [Example P64] | 80
Nc1nc(NC2CCN(S(=O)(=O)/C=C/c3ccccc3)CC2)sc1C(=O)c1c(F)cccc1F [Example P26] | 37
Nc1nc(NC2CCN(S(=O)(=O)c3ccc(I)cc3)CC2)sc1C(=O)c1c(F)cccc1F [Example P16] | 71
Cc1noc(C)c1S(=O)(=O)N1CCC(Nc2nc(N)c(C(=O)c3c(F)cccc3F)s2)CC1 [Example P51] | 3
Nc1nc(NC2CCN(S(=O)(=O)c3cccc(C(=O)O)c3)CC2)sc1C(=O)c1c(F)cccc1F [Example P29] | 35

[P] CC(C)c1cc(C(C)C)c(S(=O)(=O)N2CCC(Nc3nc(N)c(C(=O)c4c(F)cccc4F)s3)CC2)c(C(C)C)c1 [Example P9]
[Q] Nc1nc(NC2CCN(S(=O)(=O)c3ccc(Cl)s3)CC2)sc1C(=O)c1c(F)cccc1F [Example P36]
Task: Of P and Q , which carries the smaller reported CDK2 % Inhibition at 0.03 μM figure? Give the label under which the chosen entry appears.
Result: P
(P: −17%, Q: 54%)

====

A collection of compounds and their measured HCT-116 % Inhibition at 0.25 μM
Tested on: HCT-116 cell line
experimentDescription: Inhibition of cell growth, tetrazolium salt (MTT) assay
Assay type: cell-based
testContext: 0.25 μM compound; HCT-116; Table 4
Express your answer in %, writing the number without its unit.

Nc1nc(NC2CCN(C(=O)c3ccc(I)cc3)CC2)sc1C(=O)c1c(F)cccc1F | 22
COc1ccc(C(=O)N2CCC(Nc3nc(N)c(C(=O)c4c(F)cccc4F)s3)CC2)cc1 | 41
CC(C)=CC(=O)N1CCC(Nc2nc(N)c(C(=O)c3c(F)cccc3F)s2)CC1 | 30

Now turn to the next compound.
Task: Enter reported HCT-116 % Inhibition at 0.25 μM observed with HCT-116 cell line for "COc1ccc(CC(=O)N2CCC(Nc3nc(N)c(C(=O)c4c(F)cccc4F)s3)CC2)cc1OC"
Result: 29

====

tgt: CDK2/Cyclin A (Homo sapiens)
experimentDescription: Inhibition of CDK2/Cyclin A Retinoblastoma Kinase Activity
Assay type: biochemical
testContext: 0.03 μM compound; Table 2
quantityName: CDK2 % Inhibition At 0.03 μM (%)

CCOC(=O)CNC(=O)N1CCC(Nc2nc(N)c(C(=O)c3c(F)cccc3F)s2)CC1 | 27
CCOC(=O)NC(=O)N1CCC(Nc2nc(N)c(C(=O)c3c(F)cccc3F)s2)CC1 | 29
Cc1cc(C)cc(NC(=O)N2CCC(Nc3nc(N)c(C(=O)c4c(F)cccc4F)s3)CC2)c1 | 33
CCOC(=O)c1ccc(NC(=O)N2CCC(Nc3nc(N)c(C(=O)c4c(F)cccc4F)s3)CC2)cc1 | 34
Cc1ccc(NC(=O)N2CCC(Nc3nc(N)c(C(=O)c4c(F)cccc4F)s3)CC2)cc1 | 34
Nc1nc(NC2CCN(C(=O)Nc3ccccc3Br)CC2)sc1C(=O)c1c(F)cccc1F | 27
Nc1nc(NC2CCN(C(=O)NC(=O)Oc3ccccc3)CC2)sc1C(=O)c1c(F)cccc1F | 36
Nc1nc(NC2CCN(C(=O)Nc3cccc(C(F)(F)F)c3)CC2)sc1C(=O)c1c(F)cccc1F | 34
Nc1nc(NC2CCN(C(=O)Nc3ccc(Cl)c(C(F)(F)F)c3)CC2)sc1C(=O)c1c(F)cccc1F | 30
Cc1cc(C)c(NC(=O)N2CCC(Nc3nc(N)c(C(=O)c4c(F)cccc4F)s3)CC2)c(C)c1 | 28
CCOC(=O)C(CC(C)C)NC(=O)N1CCC(Nc2nc(N)c(C(=O)c3c(F)cccc3F)s2)CC1 (stereo not drawn) | 29
Nc1nc(NC2CCN(C(=O)Nc3cccc(Cl)c3)CC2)sc1C(=O)c1c(F)cccc1F | 36
